Target: AuroraB (Homo sapiens)
Sequence (Q96GD4 whole entry): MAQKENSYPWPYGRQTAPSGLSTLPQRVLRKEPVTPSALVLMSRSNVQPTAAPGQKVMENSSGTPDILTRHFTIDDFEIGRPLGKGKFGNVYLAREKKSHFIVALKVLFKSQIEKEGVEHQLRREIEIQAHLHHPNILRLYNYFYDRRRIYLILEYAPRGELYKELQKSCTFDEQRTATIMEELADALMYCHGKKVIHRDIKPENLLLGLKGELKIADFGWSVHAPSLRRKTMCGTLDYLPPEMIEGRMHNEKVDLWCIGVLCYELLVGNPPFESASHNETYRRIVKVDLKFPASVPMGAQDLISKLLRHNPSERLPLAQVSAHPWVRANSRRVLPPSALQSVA
Field 'label' (enum: yes (1) / no (0)). Set to yes (1) when IC50 is strictly under 4 µM; else no (0).

Ask: Threshold test, IC50 < 4 µM: Cc1ccc(S(C)(=O)=O)cc1Nc1nccc(-c2sc(CC(N)=O)nc2-c2ccccc2)n1 [Compound 3]
Reply: no (0)

Next:
Ask: hey, is IC50 for CNS(=O)(=O)c1cccc(Nc2ccnc(Nc3cccc(S(=O)(=O)NC)c3)n2)c1 [Compound 6] lower than 4 µM or not?
Reply: yes (1)

Ask: IC50 under 4 µM? Item: NCCNCc1ccc(-c2cc3ccncc3cc2OC2CCNCC2)s1 [Compound 12]
Reply: no (0)

Ask: # check: IC50 < 4 µM for CC(C)(CN)c1cc(-c2ccc(Cl)c(O)c2)c(-c2ccncc2)o1 [Compound 4]
Reply: no (0)

Ask: API: query returns whether the molecule falls strictly under 4 µM in IC50. Query: CCn1c(-c2nonc2N)nc2c(-c3ccccc3)ncc(CN(C)C3CCN(C)CC3)c21 [Compound 5]
Reply: no (0)

Ask: Please determine if COc1ccc(CCNC(=O)CSc2ncnc3[nH]ncc23)cc1OC [Compound 8] is below 4 µM in terms of IC50.
Reply: no (0)

Ask: Hello, I'm reviewing records and need to know if IC50 of O=C(N[C@@H](CO)c1ccccc1)c1ccc2cncc(-c3cn[nH]c3)c2n1 [Compound 11] is below 4 µM. Could you check?
Reply: yes (1)

Ask: Item COc1cccc(Nc2nc(-c3ccncc3)cc(N3CCN(C)CC3)n2)c1 [Compound 9] : IC50 beneath 4 µM, strictly?
Reply: no (0)

Ask: Just wondering, is IC50 of COc1cc(CS(C)(=O)=O)ccc1Nc1nc(Nc2cc(F)ccc2C(N)=O)c2cc[nH]c2n1 [Compound 10] below 4 µM?
Reply: no (0)

Ask: Criterion: IC50 strictly below 4 µM. Is it met by O=C(c1cccc(OCc2cccnc2)c1)N1CCc2sccc2C1CN1CCCCC1 (stereo not drawn) [Compound 14] ?
Reply: no (0)
